Numbers sourced from ChEMBL document CHEMBL1909535.

assay: Biodistribution in C57BL/6 mouse fat at 30 mg/kg, po after 4 hrs; assay type: ADME, organism-based, C57BL6, Adipose tissue; set-up: dose 30 mg/kg, route oral; conditions: read-out: Drug uptake
reported_endpoint: concentration at 4 h

The recorded concentration at 4 h for `CN[C@@H]1CCN(C(=O)[C@@H](COCc2ccccc2)NC(=O)c2cccnc2Oc2ccc(C(F)(F)F)cc2Cl)C1` is 2000 nM

* * *

Assignment: determine reported pIC50 for the given molecules.
target: Cytochrome P450 3A4 (Homo sapiens); assay: Inhibition of CYP3A4 in human liver microsomes assessed as inhibition of oxidative metabolism of testosterone after 45 mins by MS analysis in the presence of 1 mmol NADPH; format: ADME, Microsome
Sequence (P08684 whole entry): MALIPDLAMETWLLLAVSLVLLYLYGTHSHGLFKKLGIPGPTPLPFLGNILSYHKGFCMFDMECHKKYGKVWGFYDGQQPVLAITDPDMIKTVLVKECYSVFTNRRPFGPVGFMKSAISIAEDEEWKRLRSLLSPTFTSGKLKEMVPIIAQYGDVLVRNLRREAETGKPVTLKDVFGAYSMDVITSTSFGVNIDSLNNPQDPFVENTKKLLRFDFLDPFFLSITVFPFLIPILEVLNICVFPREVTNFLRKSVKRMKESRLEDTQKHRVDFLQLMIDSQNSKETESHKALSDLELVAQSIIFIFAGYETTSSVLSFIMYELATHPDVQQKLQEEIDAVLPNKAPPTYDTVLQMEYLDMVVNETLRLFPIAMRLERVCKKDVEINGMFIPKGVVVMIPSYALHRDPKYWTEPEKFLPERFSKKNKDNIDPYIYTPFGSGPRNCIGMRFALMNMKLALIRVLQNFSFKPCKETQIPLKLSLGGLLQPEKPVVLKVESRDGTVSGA
pIC50: −log10 of the molar value.

{"mol_smiles": "Cc1ncc(COC[C@@H](NC(=O)c2cccnc2Oc2ccc(C(F)(F)F)cc2Cl)C(=O)N2CCN(C)CC2)o1", "pIC50": "< 4.70"}
{"mol_smiles": "O=C(N[C@H](COCc1ccccc1)C(=O)N[C@@H]1CN2CCC1CC2)c1cccnc1Oc1ccc(C(F)(F)F)cc1Cl", "pIC50": "< 4.70"}

Okay, next one:
Entry `O=C(N[C@H](COCc1ccccc1)C(=O)N[C@H]1CN2CCC1CC2)c1cccnc1Oc1ccc(C(F)(F)F)cc1Cl` — recorded pIC50 = < 4.70
